Source listed as PubChem BioAssay.

Test: galactose survival enhancers in mitochondrial complex I cybrids – cell-based, galactose medium, ATP luminescence, primary screen (AID 1645843);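 further: positive z means more ATP and so rescue of galactose-driven cybrid death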
Details: complex I mutant cybrid cells, 72 h, hits give high values
// condition not met strictly below 0.4 in z-score; condition met otherwise

INSERT INTO results (compound, discretelabel) VALUES
  ('Cc1[nH]cnc1CN1CCc2c(c3ccccc3n2C)C1=O', 'condition not met'),
  ('Cc1ncc([N+](=O)[O-])n1CC(O)CCl (stereo not drawn)', 'condition met'),
  ('COc1ccccc1OCC(O)CO (stereo not drawn)', 'condition not met'),
  ('CCN(CC)C(=O)N1CCN(C)CC1', 'condition met'),
  ('Cn1c(=O)c2c(ncn2C)n(C)c1=O', 'condition not met'),
  ('O=C(Nc1ccc([N+](=O)[O-])cc1Cl)c1cc(Cl)ccc1O', 'condition not met'),
  ('C[C@](N)(Cc1ccc(O)cc1)C(=O)O', 'condition met'),
  ('CCC(=O)O[C@]1(C(=O)SCF)[C@H](C)C[C@H]2[C@@H]3C[C@H](F)C4=CC(=O)C=C[C@]4(C)[C@@]3(F)[C@@H](O)C[C@@]21C', 'condition met'),
  ('CC(=O)OC(C)C[N+](C)(C)C (stereo not drawn)', 'condition met'),
  ('CN1Cc2c(N)cccc2C(c2ccccc2)C1 (stereo not drawn)', 'condition not met'),
  ('OCc1cccnc1', 'condition not met'),
  ('CC(C)(O)c1ccccc1CC[C@@H](SCC1(CC(=O)O)CC1)c1cccc(/C=C/c2ccc3ccc(Cl)cc3n2)c1', 'condition met'),
  ('Cc1ccnc2c1NC(=O)c1cccnc1N2C1CC1', 'condition met'),
  ('CC(=O)NS(=O)(=O)c1ccc(N)cc1', 'condition not met'),
  ('NS(=O)(=O)c1cc2c(cc1Cl)NC(C(Cl)Cl)NS2(=O)=O (stereo not drawn)', 'condition not met'),
  ('CC(CN(C)C)CN1c2ccccc2CCc2ccccc21 (stereo not drawn)', 'condition not met'),
  ('CC1(C)S[C@@H]2[C@H](NC(=O)[C@H](N)c3ccccc3)C(=O)N2[C@H]1C(=O)O', 'condition met');
